// data source = the kinase profiling compilation of Christmann-Franck et al. (2016)

# MEASURED ON: CDK9 (human) (UniProt P50750)
# Sequence (P50750 whole entry, looked up): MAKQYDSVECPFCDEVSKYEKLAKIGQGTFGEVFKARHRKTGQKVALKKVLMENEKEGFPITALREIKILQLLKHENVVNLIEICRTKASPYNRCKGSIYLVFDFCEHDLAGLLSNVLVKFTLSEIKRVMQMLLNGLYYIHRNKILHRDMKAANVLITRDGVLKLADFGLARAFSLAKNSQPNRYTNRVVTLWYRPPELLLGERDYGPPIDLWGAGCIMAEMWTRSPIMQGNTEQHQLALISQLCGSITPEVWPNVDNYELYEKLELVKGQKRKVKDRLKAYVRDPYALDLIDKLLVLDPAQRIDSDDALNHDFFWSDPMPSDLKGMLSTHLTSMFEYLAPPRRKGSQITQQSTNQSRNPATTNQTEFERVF
# METHOD DESCRIPTION: KINOMEscan competition binding
# RECORDED CONDITIONS: compound 10.0 µM
For each record, write down the corresponding kinase still bound, per cent of control.
Numbers only, in %.

Give kinase still bound, per cent of control for each of the items listed below.
1. CC[C@@H]1C(=O)N(C)c2cnc(Nc3ccc(C(=O)NC4CCN(C)CC4)cc3OC)nc2N1C1CCCC1
2. N#Cc1c(NC(=O)c2cccc3ccccc23)sc2c1CCCC2
3. COc1cc(C(=O)NC2CCN(C)CC2)ccc1Nc1ncc2c(n1)N(C1CCCC1)CCC(=O)N2C(C)C
4. Cn1c(=O)n(-c2ccc(C(C)(C)C#N)cc2)c2c3cc(-c4cnc5ccccc5c4)ccc3ncc21
5. Cc1ccc2nc(NCCN)c3ncc(C)n3c2c1
6. C[C@@H](Oc1cc(-n2cnc3ccc(CN4CCN(C)CC4)cc32)sc1C(N)=O)c1ccccc1C(F)(F)F

1. 100
2. 83
3. 100
4. 100
5. 35
6. 93

Give kinase still bound, per cent of control for each listed item.
1. Cc1cc([C@@H](C)Nc2ccccc2C(=O)O)c2nc(N3CCOCC3)cc(=O)n2c1
2. CCN1CCN(Cc2ccc(Nc3ncc4c(n3)N(C)c3ccccc3C(=O)N4C)cc2C(F)(F)F)CC1
3. CCCS(=O)(=O)Nc1ccc(F)c(C(=O)c2c[nH]c3ncc(-c4ccc(Cl)cc4)cc23)c1F

1. 100
2. 100
3. 100

Dear colleague, could you please provide kinase still bound, per cent of control for the compounds listed below?
1. Cc1ccc(C(=O)Nc2cccc(C(F)(F)F)c2)cc1Nc1cncc(C(N)=O)c1
2. O=C1Nc2ccc(I)cc2/C1=C/c1cc(Br)c(O)c(Br)c1
3. C=CC(=O)Nc1cccc(Oc2nc(Nc3ccc(N4CCN(C)CC4)cc3OC)ncc2Cl)c1
4. O=C(NC1CC1)c1cccc(-c2ccc3c(NC(=O)C4CC4)n[nH]c3c2)c1
5. CCC(=O)N1CCN(c2ccc(-n3c(=O)ccc4cnc5ccc(-c6cnc7ccccc7c6)cc5c43)cc2C(F)(F)F)CC1
6. OCCCNc1cc(-c2ccnc(Nc3cccc(Cl)c3)n2)ccn1
7. C=CC(=O)Nc1cc(NC(=O)c2ccc(C)c(NC(=O)c3ccno3)c2)cc(C(F)(F)F)c1
8. Nc1ccc(-c2ccc3ncc4ccc(=O)n(-c5cccc(C(F)(F)F)c5)c4c3c2)cn1

[100, 93, 100, 93, 94, 10, 100, 93]

Give kinase still bound, per cent of control for each listed item.
1. O=C(NOC[C@H](O)CO)c1ccc(F)c(F)c1Nc1ccc(I)cc1F
2. COc1cc(C(=O)NC2CCN(C)CC2)ccc1Nc1ncc2c(n1)N(C1CCCC1)C(C)CC(=O)N2C (centres undefined)

[76, 100]

* * *

# MEASURED ON: TESK1 (human) (UniProt Q15569)
# Sequence (Q15569 whole entry, looked up): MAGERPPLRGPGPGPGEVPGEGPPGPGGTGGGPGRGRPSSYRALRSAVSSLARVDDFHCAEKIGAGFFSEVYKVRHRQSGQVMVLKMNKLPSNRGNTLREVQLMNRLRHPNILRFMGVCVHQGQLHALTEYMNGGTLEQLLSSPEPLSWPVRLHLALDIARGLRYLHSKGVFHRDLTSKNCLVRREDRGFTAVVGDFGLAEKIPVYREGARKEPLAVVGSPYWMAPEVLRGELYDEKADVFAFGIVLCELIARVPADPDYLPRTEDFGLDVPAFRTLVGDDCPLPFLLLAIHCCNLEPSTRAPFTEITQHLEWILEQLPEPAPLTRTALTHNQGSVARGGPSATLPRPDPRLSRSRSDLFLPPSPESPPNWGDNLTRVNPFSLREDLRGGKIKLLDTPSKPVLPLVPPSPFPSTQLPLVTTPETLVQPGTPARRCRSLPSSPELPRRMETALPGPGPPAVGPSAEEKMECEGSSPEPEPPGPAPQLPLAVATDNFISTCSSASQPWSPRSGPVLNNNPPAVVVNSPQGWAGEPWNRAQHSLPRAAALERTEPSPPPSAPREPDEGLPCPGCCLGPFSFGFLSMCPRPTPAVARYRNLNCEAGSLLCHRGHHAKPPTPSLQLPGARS
# METHOD DESCRIPTION: KINOMEscan competition binding
# RECORDED CONDITIONS: compound 10.0 µM
QUANTITY KIND: kinase still bound, per cent of control (%)
Numbers only, in %.

Recorded kinase still bound, per cent of control, per entry:
OCCCNc1cc(-c2ccnc(Nc3cccc(Cl)c3)n2)ccn1; 100
CC[C@@H]1C(=O)N(C)c2cnc(Nc3ccc(C(=O)NC4CCN(C)CC4)cc3OC)nc2N1C1CCCC1; 100

// below: kinase still bound, per cent of control requested for another compound
Would you kindly share the measured kinase still bound, per cent of control for N#Cc1c(NC(=O)c2cccc3ccccc23)sc2c1CCCC2 ?
83

* * *

# MEASURED ON: DCLK2 (human)
# METHOD DESCRIPTION: KINOMEscan competition binding
# RECORDED CONDITIONS: compound 10.0 µM
QUANTITY KIND: kinase still bound, per cent of control (%)
Give bare numbers, in %.

Here is how some molecules turned out for kinase still bound, per cent of control.
Cn1c(=O)n(-c2ccc(C(C)(C)C#N)cc2)c2c3cc(-c4cnc5ccccc5c4)ccc3ncc21; 100
Cc1ccc2nc(NCCN)c3ncc(C)n3c2c1; 100
O=C(NOC[C@H](O)CO)c1ccc(F)c(F)c1Nc1ccc(I)cc1F; 100
CCC(=O)N1CCN(c2ccc(-n3c(=O)ccc4cnc5ccc(-c6cnc7ccccc7c6)cc5c43)cc2C(F)(F)F)CC1; 100
Cc1ccc(C(=O)Nc2cccc(C(F)(F)F)c2)cc1Nc1cncc(C(N)=O)c1; 100
Nc1ccc(-c2ccc3ncc4ccc(=O)n(-c5cccc(C(F)(F)F)c5)c4c3c2)cn1; 98

I have 4 molecules here; please give me kinase still bound, per cent of control for each one.
1. CCCS(=O)(=O)Nc1ccc(F)c(C(=O)c2c[nH]c3ncc(-c4ccc(Cl)cc4)cc23)c1F
2. CN(C)C/C=C/C(=O)Nc1cccc(Nc2ncc3c(n2)N(C)c2ccccc2C(=O)N3C)c1
3. O=C(O)c1ccc(Nc2ncc3c(n2)-c2ccc(Cl)cc2C(c2c(F)cccc2F)=NC3)cc1
4. CC[C@@H]1C(=O)N(C)c2cnc(Nc3ccc(C(=O)NC4CCN(C)CC4)cc3OC)nc2N1C1CCCC1

1: 100; 2: 0.5; 3: 94; 4: 13

# batch: return kinase still bound, per cent of control for each of the 7 molecules below
1. Cc1ccc(NC(=O)c2cccc(C(C)(C)C#N)c2)cc1Nc1ccc2ncn(C)c(=O)c2c1
2. COc1cc(N2CCN(C)CC2)ccc1Nc1nc(N)c(C(=O)c2c(Cl)cccc2Cl)s1
3. O=C(NC1CC1)c1cccc(-c2ccc3c(NC(=O)C4CC4)n[nH]c3c2)c1
4. CCOc1cc2ncc(C#N)c(Nc3ccc(OCc4ccccn4)c(Cl)c3)c2cc1NC(=O)/C=C/CN(C)C
5. C=CC(=O)Nc1cccc(Nc2nc(N[C@H]3CC[C@H](N(C)C)CC3)nc3c2ncn3C(C)C)c1
6. Cc1cc([C@@H](C)Nc2ccccc2C(=O)O)c2nc(N3CCOCC3)cc(=O)n2c1
7. C[C@@H](Oc1cc(-n2cnc3ccc(CN4CCN(C)CC4)cc32)sc1C(N)=O)c1ccccc1C(F)(F)F

[100, 4.1, 100, 100, 89, 100, 100]

* * *

# MEASURED ON: PDGFRB (human) (UniProt P09619)
# Sequence (P09619 whole entry, looked up): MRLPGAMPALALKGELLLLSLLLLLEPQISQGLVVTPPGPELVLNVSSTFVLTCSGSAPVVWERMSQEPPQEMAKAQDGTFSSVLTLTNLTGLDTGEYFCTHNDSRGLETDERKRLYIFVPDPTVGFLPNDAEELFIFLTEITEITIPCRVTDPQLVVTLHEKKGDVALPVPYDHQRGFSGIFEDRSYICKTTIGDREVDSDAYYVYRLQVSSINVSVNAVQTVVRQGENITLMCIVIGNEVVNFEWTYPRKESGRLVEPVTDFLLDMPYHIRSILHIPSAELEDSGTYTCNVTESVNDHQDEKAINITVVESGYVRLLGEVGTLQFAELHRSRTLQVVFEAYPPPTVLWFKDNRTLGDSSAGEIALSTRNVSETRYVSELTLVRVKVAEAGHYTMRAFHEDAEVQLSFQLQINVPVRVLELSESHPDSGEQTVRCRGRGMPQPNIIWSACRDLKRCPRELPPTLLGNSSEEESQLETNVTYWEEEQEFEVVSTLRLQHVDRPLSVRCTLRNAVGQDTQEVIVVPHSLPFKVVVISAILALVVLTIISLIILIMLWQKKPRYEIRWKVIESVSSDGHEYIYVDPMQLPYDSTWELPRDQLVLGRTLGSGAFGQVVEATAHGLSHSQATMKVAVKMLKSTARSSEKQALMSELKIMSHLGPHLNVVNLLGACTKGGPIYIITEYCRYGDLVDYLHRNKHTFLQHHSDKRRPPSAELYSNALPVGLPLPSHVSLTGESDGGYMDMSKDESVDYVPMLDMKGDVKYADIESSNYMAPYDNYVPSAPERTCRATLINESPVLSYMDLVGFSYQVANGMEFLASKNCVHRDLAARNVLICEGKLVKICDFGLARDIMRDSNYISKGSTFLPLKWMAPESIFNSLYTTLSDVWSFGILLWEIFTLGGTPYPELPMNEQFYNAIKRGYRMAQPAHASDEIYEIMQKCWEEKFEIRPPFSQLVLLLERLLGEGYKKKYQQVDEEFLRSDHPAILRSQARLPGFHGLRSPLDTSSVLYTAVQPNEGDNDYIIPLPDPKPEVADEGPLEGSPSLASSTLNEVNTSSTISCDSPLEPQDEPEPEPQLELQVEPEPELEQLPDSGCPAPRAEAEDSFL
# METHOD DESCRIPTION: KINOMEscan competition binding
# RECORDED CONDITIONS: compound 10.0 µM
Param label: returns y when kinase still bound, per cent of control < 70%, returns n otherwise, including exact equality.

Worked examples, 3 compounds total:
Nc1ccc(-c2ccc3ncc4ccc(=O)n(-c5cccc(C(F)(F)F)c5)c4c3c2)cn1; y
COc1cc(C(=O)NC2CCN(C)CC2)ccc1Nc1ncc2c(n1)N(C1CCCC1)CCC(=O)N2C(C)C; n
C=CC(=O)Nc1cc(NC(=O)c2ccc(C)c(NC(=O)c3ccno3)c2)cc(C(F)(F)F)c1; y

Lab log: compare recorded kinase still bound, per cent of control with 70%; is it strictly lower for O=C(NOC[C@H](O)CO)c1ccc(F)c(F)c1Nc1ccc(I)cc1F ?
y

Is 70% strictly greater than the compound's reported kinase still bound, per cent of control? compound: COc1cc(N2CCN(C)CC2)ccc1Nc1nc(N)c(C(=O)c2c(Cl)cccc2Cl)s1
n

Regarding O=C1Nc2ccc(I)cc2/C1=C/c1cc(Br)c(O)c(Br)c1 , kindly confirm whether its kinase still bound, per cent of control is beneath 70%.
y

# TODO verify kinase still bound, per cent of control < 70% strictly for this compound: CCC(=O)N1CCN(c2ccc(-n3c(=O)ccc4cnc5ccc(-c6cnc7ccccc7c6)cc5c43)cc2C(F)(F)F)CC1
y

A record lists CCN1CCN(Cc2ccc(Nc3ncc4c(n3)N(C)c3ccccc3C(=O)N4C)cc2C(F)(F)F)CC1 . Is its kinase still bound, per cent of control below 70%?
y

Lab log: compare recorded kinase still bound, per cent of control with 70%; is it strictly lower for O=C(NC1CC1)c1cccc(-c2ccc3c(NC(=O)C4CC4)n[nH]c3c2)c1 ?
y

* * *

# MEASURED ON: MAPK14 (human)
# METHOD DESCRIPTION: KINOMEscan competition binding
# RECORDED CONDITIONS: compound 10.0 µM
QUANTITY KIND: kinase still bound, per cent of control (%)
One number for each entry, in %.

Batch of 8 compounds: report kinase still bound, per cent of control for each.
1. Cc1ccc(NC(=O)c2cccc(C(C)(C)C#N)c2)cc1Nc1ccc2ncn(C)c(=O)c2c1
2. N#Cc1c(NC(=O)c2cccc3ccccc23)sc2c1CCCC2
3. COc1cc(N2CCN(C)CC2)ccc1Nc1nc(N)c(C(=O)c2c(Cl)cccc2Cl)s1
4. Nc1ccc(-c2ccc3ncc4ccc(=O)n(-c5cccc(C(F)(F)F)c5)c4c3c2)cn1
5. COc1cc(C(=O)NC2CCN(C)CC2)ccc1Nc1ncc2c(n1)N(C1CCCC1)CCC(=O)N2C(C)C
6. CN(C)C/C=C/C(=O)Nc1cccc(Nc2ncc3c(n2)N(C)c2ccccc2C(=O)N3C)c1
7. CCC(=O)N1CCN(c2ccc(-n3c(=O)ccc4cnc5ccc(-c6cnc7ccccc7c6)cc5c43)cc2C(F)(F)F)CC1
8. OCCCNc1cc(-c2ccnc(Nc3cccc(Cl)c3)n2)ccn1

[0, 100, 94, 100, 100, 100, 90, 100]

# batch size: 3; output kinase still bound, per cent of control per entry
1. C[C@@H](Oc1cc(-n2cnc3ccc(CN4CCN(C)CC4)cc32)sc1C(N)=O)c1ccccc1C(F)(F)F
2. O=C1Nc2ccc(I)cc2/C1=C/c1cc(Br)c(O)c(Br)c1
3. C=CC(=O)Nc1cccc(Oc2nc(Nc3ccc(N4CCN(C)CC4)cc3OC)ncc2Cl)c1

1: 100; 2: 36; 3: 100

// batch mode: one kinase still bound, per cent of control value per listed entry
1. CCN1CCN(Cc2ccc(Nc3ncc4c(n3)N(C)c3ccccc3C(=O)N4C)cc2C(F)(F)F)CC1
2. Cc1ccc(C(=O)Nc2cccc(C(F)(F)F)c2)cc1Nc1cncc(C(N)=O)c1

[100, 5]
